System: RXF 393 renal
Assay: NCI tumour cell line growth inhibition, 48 h; in the data active = GI50 below about 0.43 µM; inactive = the rest
Permitted responses: yes (1) (active), no (0) (inactive)

Look over these answered cases.
>  <COMPOUND>
Cc1cc(O)ccc1C1(c2ccc(O)cc2C)OC(=O)c2ccccc21

>  <TARGET ENTITY>
RXF 393 renal

>  <GROUP LABEL>
no (0)

$$$$
>  <COMPOUND>
COc1ccc(OC)c(C2=C(c3cn(C)c4ccccc34)C(=O)NC2=O)c1

>  <TARGET ENTITY>
RXF 393 renal

>  <GROUP LABEL>
no (0)

$$$$
>  <COMPOUND>
COc1cccc2nc(Nc3cccc(NC(=O)c4ccc(N5CCN(C)CC5)c(C(F)(F)F)c4)c3)ccc12

>  <TARGET ENTITY>
RXF 393 renal

>  <GROUP LABEL>
no (0)

$$$$
>  <COMPOUND>
CCN1CCN(Cc2ccc(Nc3ncc(F)c(-c4cc(F)c5nc(C)n(C(C)C)c5c4)n3)nc2)CC1

>  <TARGET ENTITY>
RXF 393 renal

>  <GROUP LABEL>
yes (1)

$$$$
>  <COMPOUND>
COc1cccc(C(=O)NNc2nc(Cl)nc(N3CCN(C(c4ccccc4)c4ccccc4)CC3)n2)c1

>  <TARGET ENTITY>
RXF 393 renal

>  <GROUP LABEL>
no (0)

$$$$

Input line: Which outcome did this test record for the compound c1cc[n+](Cc2c3ccccc3cc3c2ccc2ccccc23)cc1 ?
Output line: no (0)

Input line: I'd appreciate the recorded outcome for CC(C)[C@@]12C[C@@H](OC(=O)COC(=O)c3ccccc3)[C@@](C)(O1)[C@@H]1CC[C@@H](C)[C@H]1[C@@H]2OC(=O)/C=C/c1ccccc1 from this test.
Output line: yes (1)

Input line: // return assay outcome for CCOC(=O)C1=C(C)NC2SC(=O)/C(=C\c3cccc(Cl)c3)N2C1c1ccccc1 (configuration not stated)
Output line: no (0)

Input line: Please let me know the test result on file for CCOc1cc(Cl)c(C(C)NC(=O)c2cccc(OC)c2)cc1OCC (configuration not stated) .
Output line: no (0)

Input line: State the result this test recorded for Cc1ccc(NC(=S)NNC(=S)Nc2ccc(C)cc2)cc1 .
Output line: no (0)

Input line: Test call for this compound, please: Cc1ccc2ncnc(N(C)C3CCCCC3)c2c1
Output line: no (0)

Input line: # outcome recorded in this test, key = CC(C)n1cc(-c2ccc3c(c2)N(C)CC3)c2c(NS(=O)(=O)c3ccn(C)n3)ccnc21
Output line: no (0)
